Recorded values, source PubChem BioAssay.

Test system: TRPC4 (mouse), co-expressed with 5HT1a in HEK293
Assay: enhancement of serotonin-evoked TRPC4 response – cell-based, second counter screen, HEK293 TRPC4/5HT1a, Fluo-4, counter-screen for TRPC4 potentiator project, confirmation (AID 434979)
Conditions: Fluo-4 calcium flux, at 10 µM, serotonin added at its EC20 dose
Activity calls are given as the source filed them.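 The calls were made as follows: active = signal rise over 3 SD above mean of control wells given weak agonist, in both repeats and first screen; inactive = the rest.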
Just give me one of these, please: 1 for active, -1 for inactive

Here's what some known entries look like.
- CCCCN(C(=O)c1cccc2c(=O)c(C)c(-c3ccccc3)oc12)c1ccccc1: 1
- O=C(N/N=C/c1ccccc1F)NC1CCCCC1: 1
- CSc1nc(N2CCOCC2)c2c3c(sc2n1)CCCC3: -1
- Cc1ccc(S(=O)(=O)Nc2cccc(C(=O)NCC(c3ccco3)N3CCCCC3)c2)cc1F (stereo unspecified): -1
- Cc1ccccc1OCCn1c(C)nc2ccccc21: -1

Please turn your attention to the following entry.
Query string: Status in this test for "Cc1cccn2c(=O)c3cc(C(=O)N(C)C)n(C)c3nc12" ?
Result string: 1

* * *

Assay: nonspecific potentiation of DAMGO calcium response – cell-based, HEK293 mu-opioid receptor line, counter-screen for TRPC4 allosteric potentiator project, confirmation (AID 449724);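 also: HEK293 cells carrying mu-opioid receptor only with no TRPC4 channel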
Details: HEK293 mu-opioid receptor cells, Fluo-4 calcium flux, at 10 µM, compound added before EC20 DAMGO stimulus; stronger effect = higher value
Active and inactive are the calls of the source.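 The calls were made as follows: active = calcium signal rise more than 3 SD above the low-dose agonist control mean, in both duplicate plates and the primary screen; inactive = the rest.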
Reported Property: activation

A selection of reference data follows.
* COc1cc2nc(=S)n3[nH]c(CCn4nc(C)cc4C)nc3c2cc1OC | inactive
* OCC1(CCc2ccccc2)CCN(Cc2ccc3nsnc3c2)CC1 | inactive
* Cc1cc(Nc2cccc(O)c2)c2ccccc2n1 | inactive
* CC(CN1CCCC(C(N)=O)C1)c1ccccc1 (stereo unspecified) | inactive

Query string: Looking for the measured activation of "N#C/C(=N\Nc1cccc([N+](=O)[O-])c1)C(=O)c1ccc(Br)cc1" , can you help?
Result string: inactive

Query string: Could you tell me which activation is on file for "Cc1onc(-c2c(F)cccc2Cl)c1C(=O)N(C)CC(=O)Nc1cccc(F)c1" ?
Result string: inactive

Query string: What value of activation has been recorded for this entry: "COc1cc(=O)n2c(-c3ccccc3)csc2n1"
Result string: inactive

Query string: Any idea what its activation is? The compound is COc1cccc(CNC(=O)CCC2CCCN(Cc3cc(Cl)ccc3O)C2)c1 (stereo unspecified)
Result string: inactive

Query string: Data request, read-out activation, for "O=C1Nc2cc(C(=O)NCCCN3CCOCC3)ccc2S/C1=C/c1ccccc1F"
Result string: inactive

Query string: Need activation, item "Cc1ccc(NC(=O)CN(C)C(=O)CNC(=O)c2sc3ccccc3c2Cl)cc1"
Result string: inactive

Query string: Query: activation; subject: CN1CCCCc2c1nc1ccccc1c2N (tested in a mixture with another compound)
Result string: inactive

* * *

Experiment: nonspecific calcium rise without TRPC4 – cell-based, HEK293 mu-opioid receptor line, counter-screen for TRPC4 activator project, confirmation (AID 449723);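 also: counter screen cells carry the mu-opioid receptor alone and lack TRPC4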
Settings: HEK293 mu-opioid cells, Fluo-4 calcium fluorescence, at 10 µM
Calls of active or inactive are those of the source.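 How the source made its calls: active means hit in primary screen, with calcium signal over 5 SD above buffer well mean in both duplicates; inactive means the rest.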
Your reply should match one of these outcome classes. active, inactive

* Clc1ccc(-c2csc3ncnc(NCCN4CCOCC4)c23)cc1 | inactive

Please turn your attention to the following entry.
Query string: GET /call?item= "CC(C)(C)C(=O)/C=c1\s/c(=C\c2ccc(-c3ccc([N+](=O)[O-])cc3)o2)c(=O)n1CC(=O)NC(N)=O" returns the recorded outcome of this test.
Result string: active

* * *

System: TRPC4 beta (transient receptor potential cation channel C4), mouse
Test: TRPC4 cation channel opening, retest – cell-based, Fluo4 calcium, HEK293 TRPC4beta/mu-opioid, duplicates, 10 µM, confirmation (AID 2426);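 as to activation: percent rise of integrated ratio over buffer wells lacking compound which define 0%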
Details: Fluo4 calcium fluorescence, at 10 µM; stronger effect = higher value
Calls of active or inactive are those of the source.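 Rule for the calls: active = fluorescence ratio normalized to control raised more than 50% in primary screen plus both repeat runs; inactive = the rest.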
Reported Property: activation

Please review the entries below; each comes with its answer.
* Oc1ccccc1-c1cc(-c2ccco2)[nH]n1 | inactive
* O=C(N/N=C/c1ccccc1F)NC1CCCCC1 | 85% (active)
* CCCCC(CC)c1nnc(NC(=O)c2cccs2)s1 (stereo not given) | inactive
* CCOC(=O)Cc1csc(NC(=O)NC2(C(F)(F)F)Oc3cc(Cl)c(Cl)cc3O2)n1 | inactive
* Cc1ccc(/C=N/NC(=O)CSc2nc3ccccc3n2Cc2ccccc2)o1 | inactive
* COC(=O)c1ccc(CSc2nc3ccccc3c(=O)n2CC(C)C)o1 | inactive

Query string: I have this compound here, C=CCN(CC(O)c1cccc([N+](=O)[O-])c1)C(C)CCc1ccccc1 (stereo not given) , and I need its recorded activation.
Result string: inactive

Query string: What does the data say about its activation? Entry: "CCc1ccccc1NC(=S)N(CCCN(C)C)Cc1cc2cc3c(cc2[nH]c1=O)OCO3"
Result string: inactive

Query string: Quick check: activation of Cc1ccccc1N(C(=O)c1snc(C(N)=O)c1N)C(C(=O)NC1CCCC1)c1ccco1 (stereo not given) ?
Result string: inactive

Query string: Quick check: activation of "Cc1ccc(-c2c(C(=O)N/N=C/c3ccc(OC(C)C)cc3)nnn2-c2nonc2N)cc1" ?
Result string: inactive

Query string: Give the measured activation of "CCN(CC)CC(=O)Nc1ccccc1SCC(=O)Nc1ccsc1C(=O)OC" .
Result string: inactive

Query string: Sample "CCCn1ncc(CN2CCC(n3nccc3NC(=O)CCc3ccccc3)CC2)c1C" — what was its activation?
Result string: 132% (active)

Query string: Request the reported activation associated with "CCOC(=O)c1cc(C#N)c(N2CCCCC2)nc1-c1ccccc1"
Result string: inactive

Query string: Sample "Cc1nc(Cl)nc(N(C)c2ccccc2)c1[N+](=O)[O-]" — what was its activation?
Result string: inactive

* * *

Experiment: serotonin-gated TRPC4 signal block – cell-based, second counter screen, HEK293 TRPC4/5HT1a, Fluo-4, counter-screen for TRPC4 inhibitor project, confirmation (AID 434978);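 also: serotonin given first at submaximal then at maximal dose after compound preincubation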
Details: Fluo-4 calcium flux, at 10 µM, serotonin added to trigger calcium flux
The source made the active and inactive calls.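 The calls were made as follows: active = primary screen active whose calcium signal fell more than 3 SD beyond the full-serotonin control mean in both duplicate plates; inactive = the rest.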
Thanks in advance; please answer with one of these: active, inactive

Query string: Can you look up the reported call for Cc1[nH]c2ccc(C(=O)OC(C)C(=O)N(C)c3ccccc3)cc2c1C (stereo unspecified) for me?
Result string: inactive

* * *

Tested on: transient receptor potential cation channel C4 beta (TRPC4), mouse
Test: TRPC4 cation channel opening, second retest – cell-based, second round, Fluo4, HEK293 TRPC4beta/mu-opioid, 1 µM, confirmation (AID 2461)
Settings: Fluo4 calcium fluorescence, at 1 µM; stronger effect = higher value
The source made the active and inactive calls.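 Rule for the calls: active = primary screen active and over 50% activation in each of two duplicate runs; inactive = the rest.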
Reported Property: activation

// below: answered molecules
- C=CCN1CCN(C(c2cccc(OC)c2OC)c2nnnn2CCC(C)C)CC1 (stereo unspecified): inactive
- CCCn1c(NCc2cc(OC)ccc2OC)nc2ccccc21: inactive
- N=C(N)SCc1cn2ccccc2n1: inactive
- COc1ccc2c(c1)C=C(CN1CCC(CO)(CCc3ccccc3)CC1)CO2: inactive
- O=C(CCN1CCc2ccccc2C(O)(c2ccccc2)C1)c1ccc2c(c1)OCCO2 (stereo unspecified): inactive

Now take the following molecule into account.
Query string: Reported activation, molecule "CCCn1c(=O)c2ccccc2n2c(SCCOc3ccc(C)cc3)nnc12" : ____
Result string: inactive

* * *

System: TRPC4 beta (transient receptor potential cation channel C4), mouse
Experiment: potentiation of DAMGO EC20 TRPC4 response – cell-based, Fluo-4, HEK293 TRPC4beta/mu-opioid, confirmation (AID 2555)
Conditions: DAMGO EC20, Fluo-4 calcium flux, at 10 µM
Active and inactive are the calls of the source.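 Rule for the calls: active = primary screen hit whose calcium fluorescence ratio, in both repeats, exceeds the weak agonist control mean by 3 SD; inactive = the rest.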
Outcome field: choose from active, inactive

Solved cases below.
• Cc1sc2nc(SCC(N)=O)n(C)c(=O)c2c1C = active
• CC(C)Oc1cccc(C(=O)NC(=S)Nc2ccc(N3CCN(C)CC3)cc2)c1 = inactive
• CC(C)(C)n1cnc2cc(NCc3ccc(Br)cc3)ccc21 = inactive
• CCOC(=O)C1(CCOC)CCN(C(C)CCc2ccc(OC)cc2)CC1 (configuration not stated) = inactive
• Cc1ccc(NC(=O)CNc2ccccc2CN(C)C2CCCCC2)cc1 = inactive
• Cc1ccc(C(=O)NC(=S)Nc2c(C)ccc3nsnc23)cc1 = inactive
• Cc1ccc(C)c(S(=O)(=O)/N=C2\C=C(NS(=O)(=O)c3ccccc3)C(=O)c3ccccc32)c1 = inactive
• Cn1c(-c2ccccc2)cnc1NCc1ccccc1 = inactive

Now consider a different compound.
Query string: Write down the call the test reported for this compound. Item: "Cc1cccc(/C=N/NC(=O)c2cccc(Cl)c2)n1"
Result string: active

* * *

Test system: TRPC4 (mouse), co-expressed with 5HT1a in HEK293
Assay: enhancement of serotonin-evoked TRPC4 response – cell-based, second counter screen, HEK293 TRPC4/5HT1a, Fluo-4, counter-screen for TRPC4 potentiator project, confirmation (AID 434979)
Details: Fluo-4 calcium flux, at 10 µM, serotonin added at its EC20 dose
Calls of active or inactive are those of the source.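 Rule for the calls: active = signal rise over 3 SD above mean of control wells given weak agonist, in both repeats and first screen; inactive = the rest.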
Could you please pick one outcome from this set? active, inactive

Consider the following illustrative entries.
- Cc1cc(N2CCCCC2)nc2ccccc12: inactive
- C/C(=N\N1CCN(C)CC1)c1ccc(Cl)c(Cl)c1: active
- COc1ccc(F)cc1C(=O)C1CCCN(Cc2cccn2-c2ccccn2)C1 (stereo not drawn): inactive
- COc1ccc(C(=O)N2CCN(c3c(C)cccc3C)CC2)cc1OC: active
- Clc1ccc(OCCn2ccnc2)c(Br)c1: active

Query string: Recorded test outcome, item "Clc1ccc2nc(N3CCNCC3)nc(-c3ccccc3)c2c1"
Result string: inactive

Query string: Per the records of this test, what outcome belongs to CN(C)S(=O)(=O)c1ccc(Cl)c(C(=O)NC2CCN(Cc3ccccc3)C2)c1 (stereo not drawn) ?
Result string: active
